System: Trichomonas vaginalis G3 trophozoites
recorded conditions: HTS, parasite screen at 1 µg/mL, replicate 1
In this section, each of the molecules is paired with its reported T.vaginalis_%inb_Rep1.
readout type: T.vaginalis_%inb_Rep1 (%)

[[record]]
molecule = "COc1cc([C@H]2[C@@]3(O)[C@H](O)[C@H]4C[C@]2(O)[C@](O)(C(=O)O4)[C@H]3C(=O)c2ccccc2)oc(=O)c1 [Enterocin]"
val = 13.08

[[record]]
molecule = "CC[C@H]1OC(=O)[C@H](C)[C@@H](O[C@H]2C[C@@](C)(O)[C@@H](O)[C@H](C)O2)[C@H](C)[C@@H](O[C@@H]2O[C@H](C)C[C@H](N(C)C)[C@H]2O)[C@](C)(O)C[C@@H](C)C(=O)[C@H](C)[C@@H](O)[C@]1(C)O [Erythromycin C]"
val = 5.17

[[record]]
molecule = "C[C@@H]1CCC[C@H](O)CCC/C=C/c2cc(O)cc(O)c2C(=O)O1 [Zearalenol, beta-]"
val = 9.54

[[record]]
molecule = "CCCC[C@@H](C)[C@@H](OC(=O)C[C@@H](CC(=O)O)C(=O)O)[C@H](C[C@@H](C)C[C@H](O)CCCC[C@@H](O)C[C@H](O)[C@H](C)N)OC(=O)C[C@@H](CC(=O)O)C(=O)O [Fumonisin B1]"
val = 12.98

[[record]]
molecule = "COC1C(OC(N)=O)C(O)C(Oc2ccc3c(O)c(NC(=O)c4ccc(O)c(CCC(C)C)c4)c(=O)oc3c2C)OC1(C)C (stereo not shown) [Dihydronovobiocin]"
val = 2.80

[[record]]
molecule = "CCC(=O)[C@@H](C)[C@@H](O)[C@H](C)C[C@@H](C)[C@H]1OC(=O)C[C@@]2(O)CC=C(C)[C@H](O2)/C(C)=C/CCC[C@@H](O[C@H]2C[C@@H](OC(N)=O)[C@H](O)[C@@H](C)O2)/C=C/[C@H](C)C[C@H]1C [Venturicidin A]"
val = 9.49

[[record]]
molecule = "CC[C@H]1OC(=O)[C@H](C)[C@@H](O[C@H]2C[C@@](C)(OC)[C@@H](O)[C@H](C)O2)[C@H](C)[C@@H](O[C@@H]2O[C@H](C)C[C@H]([N+](C)(C)[O-])[C@H]2O)[C@](C)(O)C[C@@H](C)C(=O)[C@H](C)[C@@H](O)[C@]1(C)O [Erythromycin A N-oxide]"
val = 6.03

[[record]]
molecule = "CC[C@H]1C[C@@H]2CC[C@@H](O2)[C@@H](C)C(=O)O[C@H](CC)C[C@H]2CC[C@H](O2)[C@H](C)C(=O)O[C@@H](C)C[C@@H]2CC[C@@H](O2)[C@@H](C)C(=O)O[C@H](CC)C[C@H]2CC[C@H](O2)[C@H](C)C(=O)O1 [Trinactin]"
val = 11.27

[[record]]
molecule = "COC(=O)c1cccc2oc(-c3cccc4oc(-c5ccccc5O)nc34)nc12 [UK-1]"
val = 10.64

[[record]]
molecule = "CO[C@@H]1[C@@H](O)[C@@H](O)[C@@H](Oc2ccc3c(O)c(NC(=O)c4ccc(O)c(CC=C(C)C)c4)c(=O)oc3c2C)OC1(C)C [Descarbamylnovobiocin]"
val = 9.75


----------
In this section, each of the molecules is paired with its reported T.vaginalis_%inb_Rep2.
System: Trichomonas vaginalis G3 trophozoites
recorded conditions: HTS, parasite screen at 1 µg/mL, replicate 2
readout type: T.vaginalis_%inb_Rep2 (%)

[[record]]
molecule = "CC(/C=C/C(=O)NO)=C\\[C@@H](C)C(=O)c1ccc(N(C)C)cc1 [Trichostatin A, trichostatin A, reference compound]"
val = 67.89

[[record]]
molecule = "Cn1ncnc2c(=O)n(C)c(=O)nc1-2 [Toxoflavin, toxoflavin, reference compound]"
val = 100.00

[[record]]
molecule = "CN[C@@H]1C[C@H]2O[C@@](C)([C@@H]1OC)n1c3ccccc3c3c4c(c5c6ccccc6n2c5c31)C(=O)N[C@H]4O [UCN-01]"
val = 13.65

[[record]]
molecule = "COC1C(OC(N)=O)C(O)C(Oc2ccc3c(O)c(NC(=O)c4ccc(O)c(CCC(C)C)c4)c(=O)oc3c2C)OC1(C)C (centres unmarked) [Dihydronovobiocin]"
val = 4.84

[[record]]
molecule = "CNC[C@@H]1CC[C@@H](N)[C@@H](O[C@H]2[C@H](O)[C@@H](O[C@H]3OC[C@](C)(O)[C@H](NC)[C@H]3O)[C@H](N)C[C@@H]2N)O1 [Gentamicin C2b]"
val = 5.20

[[record]]
molecule = "CC1CCCC(O)CCCCCc2cc(O)cc(O)c2C(=O)O1 (stereo not drawn) [Zearalanol, beta-]"
val = 13.83

[[record]]
molecule = "CO[C@H]1C[C@H](O[C@H]2[C@H](C)O[C@@H](O[C@@H]3/C(C)=C/C[C@@H]4C[C@@H](C[C@]5(C=C[C@H](C)[C@@H](C6CCCCC6)O5)O4)OC(=O)[C@@H]4C=C(C)[C@@H](O)[C@H]5OC/C(=C\\C=C\\[C@@H]3C)[C@]54O)C[C@@H]2OC)O[C@@H](C)[C@@H]1O [Doramectin]"
val = 11.21

[[record]]
molecule = "CCc1c(O)c(C)c(C(C)CC)oc1=O (centres unmarked) [Germicidin A]"
val = 12.19

[[record]]
molecule = "CC[C@H](C)[C@H]1O[C@]2(C=C[C@@H]1C)C[C@@H]1C[C@@H](C/C=C(\\C)[C@@H](O[C@H]3C[C@H](OC)[C@@H](O[C@H]4C[C@H](OC)[C@H](NC)[C@H](C)O4)[C@H](C)O3)[C@@H](C)/C=C/C=C3\\CO[C@@H]4[C@H](O)C(C)=C[C@@H](C(=O)O1)[C@]34O)O2 [Emamectin B1a]"
val = 5.71

[[record]]
molecule = "CC[C@H]1OC(=O)[C@H](C)[C@@H](O[C@H]2C[C@@](C)(OC)[C@@H](O)[C@H](C)O2)[C@H](C)[C@@H](O[C@@H]2O[C@H](C)C[C@H](N(C)C)[C@H]2O)[C@](C)(O)C[C@@H](C)C(=O)[C@H](C)[C@@H](O)[C@]1(C)O [Erythromycin A]"
val = 3.78

[[record]]
molecule = "O=C(O)c1c(=O)cccc2ssc12 [tropodithietic acid, reference compound]"
val = 97.50


----------
Tested on: T. vaginalis
test protocol: Miniaturised Mtz drug-sensitivity assay, 96-well plates
Assay type: cell-based
recorded conditions: Trichomonas vaginalis, 24 h, C2: 96-well, 50 cells/µL, 50 µL, 24 h
pIC50: −log10 of the molar value.
readout type: pIC50

[[record]]
smiles_text = "Cc1ncc([N+](=O)[O-])n1CCO"
readout_type = "pIC50"
val = 5.66


----------
Tested on: Trichomonas vaginalis G3 trophozoites
recorded conditions: HTS single concentration, parasite screen 1 µg/mL, replicate 2
Non-standard residues stand in square brackets, D forms with d. Residues, ends and D or L forms follow the SMILES beside them. Phe(ol) = N[C@H](CO)Cc1ccccc1; Aib = CC(C)(N)C(=O)O
Use T.vaginalis_%inb_Rep2 to assign classes; range list: low (below 10%), intermediate (10% to below 20%), high (20% or more)

[[record]]
compound = "CCCCCCCCCCCCCCCc1cc(O)cc(O)c1"
target_of_assay = "Trichomonas vaginalis G3 trophozoites"
cat = "intermediate"

[[record]]
compound = "[N-]=[N+]=NCC(=O)N[C@H](CO)[C@H](O)c1ccc([N+](=O)[O-])cc1"
target_of_assay = "Trichomonas vaginalis G3 trophozoites"
cat = "intermediate"

[[record]]
compound = "CC(=O)NC(C)(C)C(=O)N1CCC[C@H]1C(=O)NC(C)(C)C(=O)N[C@@H](C)C(=O)NC(C)(C)C(=O)N[C@@H](C)C(=O)N[C@@H](CCC(N)=O)C(=O)NC(C)(C)C(=O)N[C@H](C(=O)NC(C)(C)C(=O)NCC(=O)N[C@@H](CC(C)C)C(=O)NC(C)(C)C(=O)N1CCC[C@H]1C(=O)N[C@H](C(=O)NC(C)(C)C(=O)NC(C)(C)C(=O)N[C@@H](CCC(N)=O)C(=O)N[C@@H](CCC(N)=O)C(=O)N[C@H](CO)Cc1ccccc1)C(C)C)C(C)C [BIA-A1543] (Ac-[Aib]P[Aib]A[Aib]AQ[Aib]V[Aib]GL[Aib]PV[Aib][Aib]QQ[Phe(ol)])"
target_of_assay = "Trichomonas vaginalis G3 trophozoites"
cat = "intermediate"

[[record]]
compound = "COc1oc([C@H]2C/C(=C/C(C)=C/c3ccc([N+](=O)[O-])cc3)CO2)c(C)c(=O)c1C"
target_of_assay = "Trichomonas vaginalis G3 trophozoites"
cat = "low"

[[record]]
compound = "CC(=O)NCCc1c[nH]c2ccccc12"
target_of_assay = "Trichomonas vaginalis G3 trophozoites"
cat = "high"

[[record]]
compound = "COC1=CC(C)=CC(C)C(O)C(C)CC(C)=CC=CC(OC)C(C(C)C(O)C(C)C2(O)CC(O)C(C)C(C(C)C)O2)OC1=O (stereo not shown)"
target_of_assay = "Trichomonas vaginalis G3 trophozoites"
cat = "intermediate"

[[record]]
compound = "CC(C)[C@@H]1OC(=O)[C@@H](Cc2ccccc2)N(C)C(=O)[C@H](C(C)C)OC(=O)[C@@H](Cc2ccccc2)N(C)C(=O)[C@H](C(C)C)OC(=O)[C@@H](Cc2ccccc2)N(C)C1=O"
target_of_assay = "Trichomonas vaginalis G3 trophozoites"
cat = "low"

[[record]]
compound = "COC1=C(OC)C(=O)C(C)=C(C)C1=O"
target_of_assay = "Trichomonas vaginalis G3 trophozoites"
cat = "intermediate"

[[record]]
compound = "C=CC(C)(C)C12CC3C(=O)N4C(CC5(C(C)(C)C=C)c6ccccc6NC45)C(=O)N3C1Nc1ccccc12 (stereo not shown)"
target_of_assay = "Trichomonas vaginalis G3 trophozoites"
cat = "intermediate"

[[record]]
compound = "CC(=O)NCCc1c[nH]c2ccc(O)cc12"
target_of_assay = "Trichomonas vaginalis G3 trophozoites"
cat = "intermediate"

[[record]]
compound = "CC(=O)NCCc1cnc[nH]1"
target_of_assay = "Trichomonas vaginalis G3 trophozoites"
cat = "high"

[[record]]
compound = "C=CC(C)(C)C12CC3C(=O)Nc4ccccc4C(=O)N3C1N(C(C)=O)c1ccccc12 (stereo not shown)"
target_of_assay = "Trichomonas vaginalis G3 trophozoites"
cat = "intermediate"

